The reported measurements were obtained from ChEMBL document CHEMBL4732091.

# protocol notes: Cytotoxicity against human WPMY-1 cell line cells assessed as inhibition of cell proliferation measured after 72 hrs by MTT assay
# Format: cell-based
# condition parameters: WPMY-1, 72 h
Lab note: cut-off is 10 µM. Strictly less in IC50 is Fulfilled. Exactly 10 µM or more is Not fulfilled.

>>> class_name("Cc1ccc(/C=N/NC(=S)Nc2ccc(C(=O)NCCc3c(C)[nH]c4ccccc34)cc2)nc1")
"Not fulfilled"

Exercise: API: query returns whether the compound falls strictly under 10 µM in IC50. Query: `Cc1[nH]c2ccccc2c1CCNC(=O)c1ccc(NC(=S)N/N=C/c2ccc(Cl)cn2)cc1`
Key: Fulfilled

Exercise: I wonder whether `Cc1ncc(CO)c(/C=N/NC(=O)c2ccc(C(=O)NCCc3c(C)[nH]c4ccccc34)cc2)c1O` has IC50 below 10 µM. Can you tell?
Key: Not fulfilled

Exercise: Does the reported IC50 of `COc1ccc2[nH]cc(CCNC(=O)c3ccc(NC(=S)N/N=C/c4ccccn4)cc3)c2c1` stay below 10 µM?
Key: Not fulfilled

Exercise: Determine whether this compound shows IC50 lower than 10 µM (ties excluded): NC(=S)N/N=C/c1ncccc1N [TRIAPINE]
Key: Fulfilled

Exercise: Determine if `Cc1ccc(/C=N/NC(=S)Nc2ccc(C(=O)NCCc3c[nH]c4ccc(C)cc34)cc2)nc1` shows IC50 strictly lower than 10 µM.
Key: Not fulfilled

Exercise: Dear reviewer, please state whether `Cc1[nH]c2ccccc2c1CCNC(=O)c1ccc(NC(=S)N/N=C/c2ccc(C(=O)O)cn2)cc1` has IC50 strictly beneath 10 µM.
Key: Fulfilled

Exercise: Decide: IC50 of `COc1ccc2[nH]cc(CCNC(=O)c3ccc(NC(=S)N/N=C/c4ccc(C)cn4)cc3)c2c1` strictly below 10 µM?
Key: Not fulfilled

Exercise: # strict comparison: is reported IC50 < 10 µM? input = `Cc1[nH]c2ccccc2c1CCNC(=O)c1ccc(NC(=S)N/N=C/c2ccc(Br)cn2)cc1`
Key: Fulfilled

---

# protocol notes: Cytotoxicity against human WPMY-1 cell line cells assessed as inhibition of cell proliferation measured after 72 hrs by MTT assay
# Assay type: cell-based
# condition parameters: WPMY-1, 72 h
Strictly below 2000 nM in IC50: true (1). Otherwise: false (0).

>>> class_name("Cc1ccc(/C=N/NC(=S)Nc2ccc(C(=O)NCCc3c[nH]c4ccc(Cl)cc34)cc2)nc1")
"false (0)"
>>> class_name("Cc1[nH]c2ccccc2c1CCNC(=O)c1ccc(NC(=S)N/N=C/c2ccccn2)cc1")
"false (0)"
>>> class_name("Cc1ccc(/C=N/NC(=S)NCc2ccc(C(=O)NCCc3c[nH]c4ccccc34)cc2)nc1")
"true (1)"
>>> class_name("Cc1ccc(/C=N/NC(=S)NCCc2c[nH]c3ccccc23)nc1")
"false (0)"

Shifting focus to the molecule that follows.
Exercise: Field: below-cutoff. Rule: recorded IC50 strictly less than 2000 nM. Subject: `Cc1ccc(/C=N/NC(=S)Nc2ccc(C(=O)NCCc3c[nH]c4ccccc34)cn2)nc1`
Key: false (0)

---

# Test system: ECa-109 cell line
# protocol notes: Antiproliferative activity against human ECa-109 cell line cells assessed as inhibition of cell proliferation measured after 72 hrs by MTT assay
# Format: functional, cell-based
# condition parameters: ECa-109, 72 h
Please go through the items and note down their IC50.
Numbers only, in µM.

Reference set, count: 4
>>> numeric_result("Cc1[nH]c2ccccc2c1CCNC(=O)c1ccc(NC(=S)N/N=C/c2ccccc2O)cc1")
9.5
>>> numeric_result("Cc1[nH]c2ccccc2c1CCNC(=O)c1ccc(NC(=S)N/N=C/c2ccccn2)cc1")
3.46
>>> numeric_result("Cc1[nH]c2ccccc2c1CCNC(=O)c1ccc(NC(=S)N/N=C/c2ccc(C(=O)O)cn2)cc1")
16.6
>>> numeric_result("C/C(=N\\Nc1ccc(C(=O)NCCc2c(C)[nH]c3ccccc23)cn1)c1ccccn1")
0.664

Parameters: items (list). Returns: IC50 for each item.
1. Cc1ccc(/C=N/NC(=S)Nc2ccc(C(=O)NCCc3c[nH]c4ccccc34)cc2)nc1
2. Cc1[nH]c2ccccc2c1CCNC(=O)c1ccc(NC(=S)N/N=C/c2ccc(Br)cn2)cc1
3. COc1ccc(/C=N/NC(=S)Nc2ccc(C(=O)NCCc3c(C)[nH]c4ccccc34)cc2)nc1

Key:
1. 3.94
2. 13.9
3. 5.49

Give IC50 for each of the items listed below.
1. Cc1ccc(/C=N/NC(=S)NCc2ccc(C(=O)NCCc3c[nH]c4ccccc34)cc2)nc1
2. Cc1ccc(/C=N/NC(=S)Nc2ccc(C(=O)NCCc3c[nH]c4ccccc34)cn2)nc1
3. Cc1ccc(/C=N/NC(=S)NCCc2c[nH]c3ccccc23)nc1
4. COc1ccc2[nH]cc(CCNC(=O)c3ccc(NC(=S)N/N=C/c4ccccn4)cc3)c2c1
5. Cc1ccc(/C=N/NC(=S)Nc2ccc(C(=O)NCCc3c[nH]c4ccc(Cl)cc34)cc2)nc1
6. Cc1[nH]c2ccccc2c1CCNC(=O)c1ccc(NC(=S)N/N=C/c2ccc(Cl)cn2)cc1
7. COc1ccc(/C=N/NC(=S)Nc2ccc(C(=O)NCCc3c[nH]c4ccc(OC)cc34)cc2)nc1

Key:
18.5
12.5
4.51
5.03
2.4
14.3
9.12

Quick note, IC50 for `COc1ccc2[nH]cc(CCNC(=O)c3ccc(NC(=S)N/N=C/c4ccc(C)cn4)cc3)c2c1` landed at 5.75
